These entries and their values trace back to PubChem BioAssay (NCI).

Experiment: NCI Yeast Anticancer Drug Screen. Data for the rad50 strain (AID 155);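 note: 0% = growth of vehicle-only cultures of the same strain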
Conditions: S. cerevisiae rad50 strain growth inhibition; at 5.0 µM (retest, dose inferred, filed as 0.5); active compounds read high
Method: Growth inhibition of yeast strains with defined genetic alterations is measured as a screen for potential anti-cancer activity. Selected strains with alterations in DNA damage repair or cell cycle control were exposed to compounds and growth inhibition was measured relative to vehicle treated controls. The strain used in this assay is rad50
About 79,000 compounds went through this panel and 15% of them were active in at least one assay; those are over-represented in the sample as a whole.
Reported growth inhibition is given for each of the following compounds.
experimental_endpoint: growth inhibition (%)

Clc1cccc(C2SCc3nc4ccccc4n32)c1Cl (stereo not drawn) : -2
CCCCCCCCCCSCCO : 30
CN(C)c1ccc(/C=C(/C#N)c2ccc(Cl)cc2)cc1 : -16
COc1cc(C(c2cc3c(cc2O)OCO3)N2CCN(C(c3cc(OC)c(OC)c(OC)c3)c3cc4c(cc3O)OCO4)CC2)cc(OC)c1OC (stereo not drawn) : -2
Cc1ccc(C)c2[nH]c(-c3ccccc3)cc12 : -1
COc1cc(C)cc(C(=O)OCc2ccccc2)c1C1=C(Cl)C(=O)C(Cl)=CC1=O : 16
O=C(c1ccccc1)c1c(CO[N+](=O)[O-])n([O-])c2ccccc2[n+]1=O : 20
Cc1ccc(C2=C(C#N)C(c3ccccc3)C(C#N)=C(N)O2)cc1 (stereo not drawn) : 57

###

Test: NCI Yeast Anticancer Drug Screen. Data for the mec2-1 strain (AID 157)
Conditions: S. cerevisiae mec2-1 strain, at 50.0 µM (retest, dose inferred, filed as 5.0)
Description: Growth inhibition of yeast strains with defined genetic alterations is measured as a screen for potential anti-cancer activity. Selected strains with alterations in DNA damage repair or cell cycle control were exposed to compounds and growth inhibition was measured relative to vehicle treated controls. The strain used in this assay is mec2-1
This is part of a sample that, as a whole, favours compounds with a hit. Of some 79,000 tested, about 15% had one in any assay. The source made the active and inactive calls. Rule as the data show it: active = growth inhibition above about 70%; inactive = the rest.
Possible outcomes: 1 (active), -1 (inactive)

O=c1ccc2c(COc3ccc(Cl)cc3Cl)c3ccc(O)cc3oc-2c1 : -1
CCN(CC)CCNc1ccc(C)c2sc3ccc(OC)cc3c(=O)c12 : 1
CC(C)(CCCCC(C)(C)NCC1COc2ccccc2O1)NCC1COc2ccccc2O1 (stereo not given) : 1
Cc1c(N=Nc2ccc(Cl)cc2)c(-c2ccccc2)n(C2OC(CO)C(O)C(O)C2O)c(=S)c1C#N (stereo not given) : 1
NC(=S)Nc1ccccc1O : -1

###

Experiment: NCI Yeast Anticancer Drug Screen. Data for the mlh1 rad18 strain (AID 175)
Settings: S. cerevisiae mlh1 rad18 strain growth inhibition; at 50.0 µM; active compounds read high
Method: Growth inhibition of yeast strains with defined genetic alterations is measured as a screen for potential anti-cancer activity. Selected strains with alterations in DNA damage repair or cell cycle control were exposed to compounds and growth inhibition was measured relative to vehicle treated controls. The strain used in this assay is mlh1 rad18
This is part of a sample that, as a whole, favours compounds with a hit. Of some 79,000 tested, about 15% had one in any assay.
experimental_endpoint: growth inhibition (%)

Cc1[nH]ccc2c(C)c3nc4ccccc4c3cc12 : 90.3
O=[N+]([O-])c1ccc(/C=c2\sc3scc(-c4ccc([N+](=O)[O-])cc4)[n+]3\c2=C/c2ccc([N+](=O)[O-])cc2)cc1 : 94.6
CCCCCc1cccc(CC(=O)OCC)n1 : -6.15
O=c1[nH]ncc(SCc2ccccc2)c1SCc1ccccc1 : 96.5
O=S(=O)(Nc1ccc(Cl)cc1)c1ccccc1 : 45.5
CC(=O)c1c(O)c(C)c(O)c2c1OC1=CC(=O)c3c(C)noc3C12C (stereo not drawn) : 54.1
CC(=O)N/N=C/c1ccc([N+](=O)[O-])o1 : 84.8
CN(C)CCNC(=O)c1cccc2ccc(-c3ccc(-c4ccccc4)cc3)nc12 : 99.4
CCc1ccccc1NC(=O)C(C#N)C1=C(Cl)C(=O)c2ccccc2C1=O (stereo not drawn) : 98.1
CC(=O)O/C=C1\c2ccccc2CCC1c1ccc2ccccc2c1 (stereo not drawn) : -0.15
COC(CC[P+](c1ccccc1)(c1ccccc1)c1ccccc1)(C(=O)c1ccccc1)c1ccccc1 (stereo not drawn) : 99.5
CN(C)C1C=CCC(c2ccccc2)C1[N+](=O)[O-] (stereo not drawn) : 98.8
CCCCCCCCCCCC[N+](C)(CCS(=O)(=O)[O-])Cc1ccccc1 (stereo not drawn) : 99.2

###

Reported growth inhibition is given for each of the following compounds.
test: NCI Yeast Anticancer Drug Screen. Data for the sgs1 mgt1 strain (AID 161);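 note: 0% = growth of cultures given vehicle only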; details: S. cerevisiae sgs1 mgt1 strain, at 50.0 µM, active compounds read high
This is part of a sample that, as a whole, favours compounds with a hit. Of some 79,000 tested, about 15% had one in any assay.
experimental_endpoint: growth inhibition (%)

CCCCCCCCCC(=O)CC(=O)c1ccc(O)cc1O : 89.7
CC(=O)OC1CCC2(C)C(=CCC3C2CCC2(C)C(C(C)N)CCC32)C1 (configuration not stated) : 93
Nc1ccccc1Sc1ccc(C(F)(F)F)cc1[N+](=O)[O-] : 99.2
Nc1cccc2c1C(=O)c1cccc(Cl)c1C2=O : 21.1
O=[N+]([O-])C1=Cc2ccccc2S(=O)(=O)CC1 : 92.7
O=C(Cc1nc2ccc(Cl)cc2nc1CC(=O)c1ccccc1)c1ccccc1 : 61.7
CC1=NC(c2ccccc2)(C2(c3ccccc3)C(c3ccccc3)=C2c2ccccc2)C(=O)O1 (configuration not stated) : 86.9

###

experiment: NCI Yeast Anticancer Drug Screen. Data for the mlh1 rad18 strain (AID 175); conditions: S. cerevisiae mlh1 rad18 strain growth inhibition; at 50.0 µM; active compounds read high
This is part of a sample that, as a whole, favours compounds with a hit. Of some 79,000 tested, about 15% had one in any assay.
experimental_endpoint: growth inhibition (%)

C(=P(c1ccccc1)(c1ccccc1)c1ccccc1)[P+](c1ccccc1)(c1ccccc1)c1ccccc1.[Br][Cu][Br] : 99.3
S=C(Nc1cc(Cl)cc(Cl)c1)SCc1ccccc1 : 99.3
C/C(=C/C(=O)/C=C/c1ccccc1)c1c(C)[nH]c2ccccc12 : -0.4

###

test: NCI Yeast Anticancer Drug Screen. Data for the mlh1 rad18 strain (AID 175); conditions: S. cerevisiae mlh1 rad18 strain growth inhibition; at 50.0 µM; active compounds read high
The panel holds about 79,000 compounds, 15% with a hit somewhere; the sample as a whole holds those more often.
experimental_endpoint: growth inhibition (%)

CC(=O)Nc1c(Cl)ccc2c1Cc1cc([N+](=O)[O-])ccc1-2 : 90.8
CC1CCC2(C)C(CC=C(C=O)C2(O)C=O)C12CO2 (stereo not drawn) : 93.5
CCCCN(CCCC)CC(O)c1cccc2c(Cl)cccc12 (stereo not drawn) : 70.5

###

test: NCI Yeast Anticancer Drug Screen. Data for the bub3 strain (AID 167); conditions: S. cerevisiae bub3 mutant strain, at 50.0 µM
This is part of a sample that, as a whole, favours compounds with a hit. Of some 79,000 tested, about 15% had one in any assay. Active and inactive are the calls of the source. Cut-off read from the data, not from the text of the source: active = growth inhibition above about 70%; inactive = the rest.
Possible outcomes: active, inactive

O=C(c1ccccc1)N(C1CCCCC1)C1CCCCC1 : active
O=c1c2cc(Br)ccc2ncn1COCc1ccccc1 : active
CCOC(=O)OC(=S)N(C1CCCCC1)C1CCCCC1 : inactive
N#CS/C(C(Cl)=C(Cl)Cl)=C(/Cl)[N+](=O)[O-] : active
CCN(CC)c1ccc(N=C2C=C(C(=O)Nc3cccc(Cl)c3)C(=O)c3ccccc32)c(C)c1 : inactive
C=C1CC(C)(COc2ccc3c(C)c(Cl)c(=O)oc3c2)OC1=O (stereo unspecified) : active
O=C1/C(=C/c2ccc(F)cc2)CNC/C1=C\c1ccc(F)cc1 : active
CCC(=NCCCCCCN=C(CC)c1cc(C)cc([N+](=O)[O-])c1O)c1cc(C)cc([N+](=O)[O-])c1O.[Fe] : active
N#CC(CC(Br)CBr)(c1ccccc1)c1ccccc1 (stereo unspecified) : inactive
O=C(Nc1cccc(Cl)c1)Oc1c(Br)cc(Br)cc1Br : active
Cc1cc(C)c2c(c1)sc1nncn12 : active
Cc1nc(C(N)=S)sc1/C(CC(=O)C(=O)Nc1cccc2ccc(O)cc12)=N\NC(=O)c1ccncc1 : inactive
Cc1ccsc1/C=N/Nc1cc(C)c2cccc(C)c2n1 : inactive
CN(C)c1nc(-c2ccccc2)cc(-c2ccc(O)cc2)n1 : inactive
O=S1Nc2ccccc2S1 (stereo unspecified) : active
O=C(O)/C=C\c1cc2ccccc2c2ccccc12 : active
CC(=O)Nc1cccc(C(=O)O)c1 : inactive
Cc1cc(N(CCOS(C)(=O)=O)CCOS(C)(=O)=O)ccc1C=Nc1cccc(Cl)c1 : inactive
CCc1nc(N)nc(N)c1-c1ccc(NCCCCCCCCCCCCN)c([N+](=O)[O-])c1 : active
O=S(=O)(CC(Br)CCl)c1ccccc1 (stereo unspecified) : inactive
Cc1c[nH]c(=O)n(CC(=O)C2CCC3C4CCC5=CC(=O)CCC5(C)C4CCC23C)c1=O (stereo unspecified) : inactive
